System: NCI-H522 lung
runDescription: NCI-60 one-dose screen, 48 h
measurementSetup: 10 µM unless noted
Compounds without any hit were thinned out: in the full panel of roughly 83,000, 20% have a hit. Calls of active or inactive are those of the source. The calls were made as follows: active = growth percent below 10; inactive = the rest.
Outcome (select one): TRUE = active, FALSE = inactive

>>> qualitativelabel("COCOc1cc2oc(C(=O)N[C@@H](Cc3ccccc3)C(O)C(=O)NCc3ccccc3)c(C)c(=O)c2cc1OCOC (stereo partly specified)")
"FALSE"
>>> qualitativelabel("CCCSc1nc(NCCc2c[nH]c3ccccc23)c(C#N)c(-c2ccccc2)n1")
"FALSE"
>>> qualitativelabel("CCOC(=O)c1ccc(Nc2nc(NN)nc(-c3ccc(OC)cc3)c2C#N)cc1")
"FALSE"
>>> qualitativelabel("Nc1cc2ccccc2c(=O)n1NC(=O)c1ccc(I)cc1")
"FALSE"
>>> qualitativelabel("CC(/C=C1\\SC(=S)N(CCCC(=O)NC(CC(C)C)C(=O)O)C1=O)=C\\c1ccccc1 (stereo unspecified)")
"FALSE"
>>> qualitativelabel("COc1cccc(-c2nc(Nc3ccc(S(N)(=O)=O)cc3)c3ccccc3n2)c1")
"FALSE"

Exam item: Answer briefly: the call reported for COc1c(F)ccc(C(=O)Nc2ccc3nc(NC(=O)C4CCCN(S(=O)(=O)c5cccc(Br)c5)C4)sc3c2)c1F (stereo unspecified) in this assay.
Marked response: FALSE

Exam item: Tell me the assay call for "Cn1cc(NC(=O)c2cc(NC(=O)c3ccc(/C=C/c4ccccc4)cc3)cn2C)cc1C(=O)NCCCN1CCOCC1" please.
Marked response: FALSE

Exam item: Dear all, I need the recorded test outcome for "O=C(Nc1cccc(-n2cnc3cc(-c4ccc(O)cc4)ccc32)c1)C1CC1" , thank you.
Marked response: TRUE

Exam item: Hey, what did the test say about "COc1cc(OC)c2c3nc4cc(C)c(C)cc4nc3n(CCN(C)C)c2c1" ?
Marked response: FALSE

Exam item: What classification did "CCCSc1nc(Nc2ccc(S(N)(=O)=O)cc2)c(C#N)c(-c2cc(OC)c(OC)c(OC)c2)n1" end up with in this test?
Marked response: FALSE

Exam item: Could you kindly confirm the outcome this assay logged for "O=C1NC(=O)c2c1c1c3cc(Br)ccc3[nH]c1c1oc3ccc(F)cc3c21" ?
Marked response: TRUE

Exam item: Please state the recorded outcome for this compound: "Cn1cc(-c2cc(N)n3nc(-c4cn(C)c5ncccc45)cc3n2)c2cccnc21"
Marked response: FALSE

Exam item: What is the recorded call for this compound in the test? C#CCOc1cc(N(CC)CC)ccc1C(C(=O)NC(C)(C)C)N(C(=O)C1CCc2cc(F)ccc2O1)c1cc(C)cc(C)c1 (stereo unspecified)
Marked response: FALSE

Exam item: Which outcome was assigned to "CCOc1ccc(-c2c(C#N)c(-c3ccc(Cl)cc3)nc3n[nH]c(-c4ccc(Cl)cc4)c23)cc1OC" in this test?
Marked response: FALSE

====

Tested on: KM12 colon
runDescription: NCI-60 one-dose screen, 48 h
measurementSetup: 10 µM unless noted
About 83,000 compounds went through this panel and 20% of them were active in at least one assay; those are over-represented in the sample as a whole. The source made the active and inactive calls. The calls were made as follows: active = growth percent below 10; inactive = the rest.
// one of active, inactive, no free text

Exam item: Hello, I am checking results. What call was entered for "S=c1c2ccccc2nc2n1CCc1c-2[nH]c2ccccc12" ?
Marked response: inactive

Exam item: // outcome(item) with item = "COc1ccc(/C=C2\C(=O)Nc3ccc(Cl)cc32)cc1OCc1ccccn1"
Marked response: inactive

Exam item: Dear colleague, could you share the recorded outcome for "O=C(Cn1c(/C=C/c2ccccc2)nc2ccccc2c1=O)Nc1ccc(Cl)cc1" when you have a moment?
Marked response: inactive

Exam item: Entry "COc1ccc2nc(Nc3cccc(NC(=O)c4ccc(CN5CCCN(C)CC5)c(C(F)(F)F)c4)c3)ccc2c1" : call = ?
Marked response: active

Exam item: Please share the test call associated with "Cc1cccc(-c2nc(Nc3cccc(S(N)(=O)=O)c3)c3ccccc3n2)c1" .
Marked response: inactive

Exam item: Record request — test call for "CC1=C(C#N)C2=NNCC(c3ccccc3)=NN2C(c2ccccc2)=C1"
Marked response: inactive

Exam item: Kindly provide the recorded test outcome for the following compound: "CC(=O)Oc1ccccc1C(=O)[Se]CC(=O)Nc1cccc(C(F)(F)F)c1"
Marked response: inactive

Exam item: Look up the recorded call for "Cc1ccc(C(=O)CSc2nc3ccc(F)cc3c(=O)n2-c2ccc(Cl)cc2)cc1" in this test.
Marked response: inactive

Exam item: Entry "COc1cc(/C=C/C(=O)c2nnn(-c3ccc(Cl)cc3)c2C)cc(OC)c1OC" : call = ?
Marked response: inactive

====

Test system: UACC-62 melanoma
runDescription: NCI-60 one-dose screen, 48 h (100 = growth as untreated, 0 = no growth, -100 = all killed)
measurementSetup: 10 µM unless noted
This is part of a sample that, as a whole, favours compounds with a hit. Of some 83,000 tested, about 20% had one in any assay.
Parameter class (string): assigned from measured growth. Ranges: bin 1 = under 20%, bin 2 = from 20% up to 60%, bin 3 = 60% and over

>>> qualitativelabel("Cn1cc(NC(=O)c2cc(NC(=O)c3ccc(C#Cc4ccccc4)cc3)cn2C)cc1C(=O)NCCCN1CCOCC1")
"bin 1"
>>> qualitativelabel("Cc1ccc(NC(=O)[C@]23CCC(C)(C)CC2C2=CCC4[C@@]5(C)C[C@@H](O)[C@H](O)[C@@](C)(CO)C5CC[C@@]4(C)[C@]2(C)CC3)cc1 (stereo not given in full)")
"bin 2"
>>> qualitativelabel("Nc1nnc(-c2c[nH]c3ccc(Br)cc23)c(-c2c[nH]c3ncc(Br)cc23)n1")
"bin 2"
>>> qualitativelabel("CSc1ccc(NC(=O)c2ccc3nnn(/C(C#N)=C/c4ccccn4)c3c2)cc1")
"bin 1"
>>> qualitativelabel("CCOC(=O)C1=C(N)N(c2ccccc2)C2=C(C(=O)CC(C)(C)C2)C1c1ccc(N2CCOCC2)cc1 (stereo not given)")
"bin 3"
>>> qualitativelabel("CCCCCCCS(=O)(=O)N1CCCC(C(=O)Nc2nc3ccc(NC(=O)c4ccc(F)c(OC)c4F)cc3s2)C1 (stereo not given)")
"bin 2"
>>> qualitativelabel("COc1cc(C2CC(c3cc(OC)c(OC)c(OC)c3)=Nc3c(N)nc(N)nc3N2)ccc1Oc1nc(NCCO)nc(N2CCOCC2)n1 (stereo not given)")
"bin 3"
>>> qualitativelabel("S=C(NCCc1ccccc1)Nc1ccc(OCc2nc3ccccc3[nH]2)cc1")
"bin 3"

Exam item: Kindly state the category for this compound: "Cc1ccc(-c2nc(C#N)c(S(=O)(=O)N3CCN(S(=O)(=O)c4ccc(Cl)cc4)CC3)o2)cc1"
Marked response: bin 3

Exam item: Sort COCOc1cc2oc(C(=O)N[C@@H](Cc3ccccc3)C(O)C(=O)NCc3ccccc3)c(C)c(=O)c2cc1OCOC (stereo not given in full) into one of the categories.
Marked response: bin 3

Exam item: State the band of C=C1CCC2C3(C)COC(c4cccs4)OC3CCC2(C)C1CC(Sc1ccccc1)C1=CCOC1=O (stereo not given)
Marked response: bin 3

====

Tested on: MCF7 breast
runDescription: NCI-60 one-dose screen, 48 h (100 = growth as untreated, 0 = no growth, -100 = all killed)
measurementSetup: 10 µM unless noted
Compounds without any hit were thinned out: in the full panel of roughly 83,000, 20% have a hit.
measurementType: growth (%)
Numbers only, in %.

>>> endpointresult("Cc1ccc(C(=O)CSc2nc3ccc(C)cc3c(=O)n2-c2ccc(F)cc2)cc1")
78.1
>>> endpointresult("COc1ccc(NC(=O)Cn2c(/C=C/c3cccc([N+](=O)[O-])c3)nc3ccccc3c2=O)cc1")
46.8
>>> endpointresult("Cn1cc(-c2nnc(N)nc2-c2c[nH]c3ccc(F)cc23)c2cccnc21")
23.6
>>> endpointresult("O=C(c1ccccc1)c1ccc2nc(-c3cccc(Cl)c3)[nH]c2c1")
105
>>> endpointresult("C/C(=N\\N=C\\c1cc([N+](=O)[O-])ccc1Cl)c1ccc2c(c1)Nc1ccccc1S2")
63.1

List growth for every entry below, keeping the order given.
1. COc1ccc(/C=N/NC(=O)Cn2nc(Cc3ccc(OC)cc3)c3onc(C)c3c2=O)cc1
2. C#CCOc1cc(N(CC)CC)ccc1C(C(=O)NC(C)(C)C)N(C(=O)C1CCc2cc(F)ccc2O1)c1ccc(F)cc1 (stereo not drawn)
3. O=C(N=Nc1c(O)[nH]c2ccc([N+](=O)[O-])cc12)c1ccc2nc(-c3ccccc3)[nH]c2c1
4. Nc1nnc(-c2c[nH]c3ccc(Br)cc23)c(-c2c[nH]c3ncc(Br)cc23)n1
5. C#CCOc1cc(N(CC)CC)ccc1C(C(=O)NC(C)(C)C)N(C(=O)C1CCc2cc(F)ccc2O1)c1cc(C)cc(C)c1 (stereo not drawn)
6. CNC(=O)c1cccc(NC(=O)c2ccc3c(c2)nnn3/C(C#N)=C/c2ccccn2)c1
7. COc1ccc(-c2nnc3ccc(N/N=C/c4ccc(C)cc4)nn23)cc1
8. O=C(O)c1cccc(-c2ccc(/C=N/NC(=O)c3[nH]c4ccc(Br)cc4c3-c3ccccc3)s2)c1

Marked response:
[45, 20.2, 18.7, 12.3, 14.9, -77.2, 57.2, 13.7]

I need growth for every entry listed below, if you could help.
1. O=c1[nH]c2ccccc2cc1CSc1cccc(Nc2nccc(-c3ccc4ccccc4c3)n2)c1
2. O=[N+]([O-])c1ccc(/C=C/c2nc3ccccc3n3c(=S)[nH]nc23)cc1
3. COc1ccc(NC(=O)c2sc3nc(C(C)C)ccc3c2N)cc1
4. COc1ccc2c(c1)C(=N/N=C(\C)c1ccc(OC)c(S(N)(=O)=O)c1)C(=O)N2
5. O=C(COc1ccc(NC(=O)Nc2ccc(Cl)cc2)cc1)N/N=C/c1ccccc1

Marked response:
1: 85.1; 2: 51.2; 3: 79.5; 4: 90.3; 5: -78.6

# batch: return growth for each of the 5 compounds below
1. O=C(O)c1ccc(-c2ccc(/C=N/NC(=O)c3[nH]c4ccc(Br)cc4c3-c3ccccc3)o2)cc1
2. CCCCCCCCOc1cccc(S(=O)(=O)Nc2ccc(C)cc2C(=O)O)c1
3. CSc1ccc(NC(=O)c2ccc3nn(/C(C#N)=C/c4ccccn4)nc3c2)cc1
4. CCCCSc1nc(NCCc2c[nH]c3ccccc23)c(C#N)c(-c2ccccc2)n1
5. CCC(C)(C)c1ccc(OCCCCCCN2CCN(c3ccncc3)CC2)cc1

Marked response:
1. 9.15
2. 89.8
3. -78.6
4. 3.23
5. -58.1

Reference source for all entries: PubChem BioAssay (NCI)
